Reported GI50 values follow for various molecules
# Test system: HL-60
# method notes: NCI tumour cell line growth inhibition, 48 h
Active and inactive are the calls of the source. Rule as the data show it: active = GI50 up to about 1.1 µM and inactive = higher.

Problem: Which GI50 reading was recorded for the molecule CC(=O)OC12c3ccccc3C(c3ccccc31)C1C(=O)N(c3ccccn3)C(=O)C12 (stereo not given) ?
Solution: 33.5 µM (inactive)

Problem: May I ask what GI50 has been recorded for "CCNC(=S)NNC(=O)c1ccccc1Nc1ccccc1C(=O)NNC(=S)NCC" ?
Solution: > 100 µM (inactive)

Problem: Using the record for "Cn1c(COC(=O)NC2CCCCC2)c(COC(=O)NC2CCCCC2)c2ccc3cc(Cl)c(Cl)cc3c21" , report its GI50.
Solution: 9.62 µM (inactive)

Problem: Please give the measured GI50 for this molecule: N#CC1C(=O)SC2c3ccccc3C(=O)c3ccccc3C12 (stereo not given)
Solution: > 10 µM (inactive)

Problem: Item COC(=O)C(C(=O)C(=O)Nc1cccc(O)c1)c1nc2ccc(Cl)cc2nc1O (stereo not given) has what recorded GI50?
Solution: > 100 µM (inactive)

Problem: Recorded GI50 of "COCn1c2ccc(OC(C)=O)cc2c2c(=O)oc(C)nc21" , please.
Solution: > 100 µM (inactive)

Problem: Which GI50 is reported for this molecule? CCOC(=O)N1CCC2C(=C(C)C(C)C3=C2C(=O)c2ccccc2C3=O)C1 (stereo not given)
Solution: 2.07 µM (inactive)

Problem: Can you share its GI50? I mean this molecule: "O=C(O)c1ccccc1SCc1cccc2c(=O)c3ccc(Cl)cc3oc12"
Solution: 11 µM (inactive)

Problem: Consider the molecule shown here: COc1ccccc1C1CC(=O)CC(c2ccccc2OC)C12C(=O)NC(=S)NC2=O (stereo not given) What is its recorded GI50?
Solution: 9.93 µM (inactive)

Problem: Given the entry "C[n+]1c2ccccc2n2c3ccccc3c(NCc3ccco3)c(C#N)c21" , report its measured GI50.
Solution: 3.17 µM (inactive)

###

# key: entry, value: GI50
# System: HL-60
# method notes: NCI tumour cell line growth inhibition, 48 h
Activity calls are given as the source filed them. Cut-off read from the data, not from the text of the source: active = GI50 up to about 1.1 µM and inactive = higher.

Solved cases below.
{"molecule": "CC1(C)C=[N+]([O-])C(C)(C)N1", "GI50": "> 100 µM (inactive)"}
{"molecule": "Cc1ccccc1C(C#N)/C(=N/NC(N)=S)C(=O)Nc1c(C)cccc1C (stereo unspecified)", "GI50": "> 100 µM (inactive)"}
{"molecule": "O=c1[nH]nc(-c2cccc([N+](=O)[O-])c2)[nH]1", "GI50": "> 100 µM (inactive)"}
{"molecule": "C/C(=N\\NC(=O)c1ccccc1O)C1=CNc2ccccc2S1", "GI50": "3.54 µM (inactive)"}
{"molecule": "COC(=O)CCC1CCc2c(OC)ccc(OC)c2C1=O (stereo unspecified)", "GI50": "> 100 µM (inactive)"}

We now examine a further molecule.
Problem: Find the recorded GI50 belonging to "O=S(O)c1cc(Cl)cc(Cl)c1O" and report it.
Solution: > 100 µM (inactive)

###

# System: SK-OV-3
# method notes: NCI tumour cell line growth inhibition, 48 h
Activity calls are given as the source filed them. Cut-off read from the data, not from the text of the source: active = GI50 up to about 1.1 µM and inactive = higher.
Reply using exactly one outcome from class 1 for active, class 0 for inactive

Check out these entries, answers already filled in.
{"compound": "CCc1nc(N)nc(N)c1-c1ccc(N2CCNCC2)cc1", "test system": "SK-OV-3", "group label": "class 0"}
{"compound": "CC1=CC(=O)[C@@H](O)[C@]2(C)[C@H]3[C@@]4(O)OC[C@@]35[C@@H](C[C@@H]12)OC(=O)C(OC(=O)CC1=CCCC1)[C@H]5[C@@H](C)[C@H]4O (stereo not given in full)", "test system": "SK-OV-3", "group label": "class 1"}
{"compound": "S=C(Nc1cccc(C2(N3CCCCC3)CCCCC2)c1)Nc1cccc(C2(N3CCCCC3)CCCCC2)c1", "test system": "SK-OV-3", "group label": "class 0"}
{"compound": "O=S1(=O)c2ccccc2N=C(c2ccccc2Cl)CC1c1ccc(F)cc1 (stereo not given)", "test system": "SK-OV-3", "group label": "class 0"}
{"compound": "O=C(O)C[C@@H](Cl)[C@H](NC(=O)OCc1ccccc1)C(=O)O", "test system": "SK-OV-3", "group label": "class 0"}
{"compound": "c1ccc(-c2sc(-c3ccccc3)c3c2C2CCC3C2)cc1", "test system": "SK-OV-3", "group label": "class 0"}
{"compound": "CCN1CCCCC(=N\\O)/C(=N/O)CCCC1", "test system": "SK-OV-3", "group label": "class 0"}
{"compound": "CC(=O)/C(=C/NC(=S)c1cccnc1)C(=O)Nc1ccccc1C", "test system": "SK-OV-3", "group label": "class 0"}
{"compound": "CCOC(=O)CCCSCCCC(=O)CCCSCCCC(=O)OCC", "test system": "SK-OV-3", "group label": "class 0"}
{"compound": "Nc1ccc(Sc2c3ccccc3nc3ccccc23)cc1", "test system": "SK-OV-3", "group label": "class 0"}

Continue with the next compound.
Problem: For "COc1cc2cc3c4c(cc(OC)c(OC)c4c2cc1OC)CCN3" , which call appears in the assay record?
Solution: class 0

###

# Tested on: NCI/ADR-RES
# method notes: NCI tumour cell line growth inhibition, 48 h
Active and inactive are the calls of the source. Rule as the data show it: active = GI50 up to about 1.1 µM and inactive = higher.
Reply using exactly one outcome from class 1 (active), class 0 (inactive)

Answered cases to consult:
{"compound": "C=C[C@@H](C)[C@H](NS(=O)(=O)c1ccc(C)cc1)C(=O)OCC", "group label": "class 0"}
{"compound": "ON[C@@H]1C=C[C@H](n2cnc3c(NC4CC4)ncnc32)C1", "group label": "class 0"}
{"compound": "CCN1CCCCC(=N\\O)/C(=N/O)CCCC1", "group label": "class 0"}
{"compound": "CN(C)c1ccc(-c2[nH]c(=O)c3ccccc3[n+]2C)cc1", "group label": "class 0"}
{"compound": "COc1ccc(-c2oc3cc(OC)c(OC)c(OC)c3c(=O)c2OC)cc1OC [HEXAMETHOXYFLAVONE]", "group label": "class 0"}
{"compound": "Cn1cnc([N+](=O)[O-])c1SCC(=O)O", "group label": "class 0"}

Problem: Hey, what did the test say about CCCCCc1cc2cc3c(c(O)c2c(=O)[nH]1)C1(CC3)C(=O)c2c(O)c3c(c(O)c2C1=O)C(=O)C(OC)=CC3=O (stereo unspecified) ?
Solution: class 0

Problem: Called result for "Cc1ccc(NC(=S)C#N)c(C)c1"
Solution: class 0

Problem: How did this test come out for "Cc1cc(S(=O)(=O)[N-]/C(=N/S(=O)(=O)c2cc(Cl)sc2Cl)[n+]2ccc(N(C)C)cc2)c(S)cc1Cl" ?
Solution: class 0

Problem: What call does the record list for CC(=O)c1cccc2c1CC1(C2)Cc2ccc3c(c2C1=O)CCC3 (stereo unspecified) ?
Solution: class 0

Problem: How was "COC(=O)[C@H]1[C@H](C(=O)OC)[C@@H](C)c2c(ccc3c2[nH]c2ccccc23)[C@@H]1C" classified in this test?
Solution: class 0

Problem: Write down the call the test reported for this compound. Item: "CCc1nc(N)nc(N)c1-c1ccc(N2CCNCC2)cc1"
Solution: class 0

Problem: Tell me the recorded outcome of this test for CC(=O)NC(CS)C(=O)O (stereo unspecified) .
Solution: class 0

###

# Tested on: SNB-19
# method notes: NCI tumour cell line growth inhibition, 48 h
The source made the active and inactive calls. Cut-off read from the data, not from the text of the source: active = GI50 up to about 1.1 µM and inactive = higher.
API: response.call in YES for active, NO for inactive

{"compound": "CC(C)(C)c1cc(C(C)(C)C)c(SSc2c(C(C)(C)C)cc(C(C)(C)C)c(O)c2O)c(O)c1O", "group label": "NO"}
{"compound": "CCOC(=O)C1=C(C)OC(=O)[C@@]2(OC)C=C(Cl)[C@@]12C", "group label": "NO"}
{"compound": "COc1ccc(CC2NCCc3cc(OC)c(OC)cc32)cc1Br (stereo unspecified)", "group label": "NO"}
{"compound": "CC(=O)/C(=C/NC(=S)c1cccnc1)C(=O)Nc1ccccc1C", "group label": "NO"}
{"compound": "COC(=O)C12OCC34C(CC5C(C)C6=CC(=O)OC6=CC5(C)C3C(O)C1O)OC(=O)C(O)C24 (stereo unspecified)", "group label": "YES"}

Problem: In this assay, the call recorded for "Cn1ccnc1CCc1ccc(F)cc1F" was what?
Solution: NO

Problem: Outcome? "COc1ccc(N2N=NN(C(C)C)/C2=C(/Cl)c2nnnn2-c2ccc(OC)cc2)cc1"
Solution: NO

Problem: Hi team, can someone confirm the assay call for COCOCC1CCCN1CN1CCC[C@H]1COCOC (stereo partly specified) ?
Solution: NO

Problem: // param item: "O=[S@@]1Nc2ccc(Br)cc2S1" ; yields the recorded call
Solution: NO

Problem: Which outcome was assigned to CCCCCCCCCCCCOP(=O)(O)OCC(N)C(=O)O (stereo unspecified) in this test?
Solution: NO

Problem: Recorded call for CCN(CC)CC(=O)NC1c2ccccc2Oc2c(C)cccc21 (stereo unspecified) ?
Solution: NO
